Ref: paper doi:10.1101/2023.07.10.548257

- Target Entity: full-length SHP2^R138Q (Homo sapiens, UniProt Q06124, R138Q)
- Construct: Full-length SHP2 constructs were diluted in assay buffer; His6-TEV (N, cleaved yes)
- Sequence (Q06124 whole entry R138Q): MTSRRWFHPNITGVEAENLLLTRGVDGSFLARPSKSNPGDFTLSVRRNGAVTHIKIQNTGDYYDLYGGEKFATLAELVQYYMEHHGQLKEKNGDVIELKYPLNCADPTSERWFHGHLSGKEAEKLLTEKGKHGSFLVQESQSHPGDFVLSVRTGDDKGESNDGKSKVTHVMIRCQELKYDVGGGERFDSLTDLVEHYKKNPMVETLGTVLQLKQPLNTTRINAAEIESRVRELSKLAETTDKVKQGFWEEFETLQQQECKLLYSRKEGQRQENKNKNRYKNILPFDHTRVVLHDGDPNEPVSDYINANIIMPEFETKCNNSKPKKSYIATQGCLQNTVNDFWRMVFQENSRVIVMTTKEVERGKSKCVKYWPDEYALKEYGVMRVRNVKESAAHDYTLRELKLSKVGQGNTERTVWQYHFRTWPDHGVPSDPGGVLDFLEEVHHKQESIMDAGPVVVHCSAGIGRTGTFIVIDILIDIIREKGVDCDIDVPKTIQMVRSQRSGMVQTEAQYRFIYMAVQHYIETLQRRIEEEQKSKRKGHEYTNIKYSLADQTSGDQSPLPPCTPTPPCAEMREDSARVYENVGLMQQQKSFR
- Protocol Notes: SHP2 activation assay using phosphopeptides (DiFMUP), SHP2 R138Q
- Measurement Setup: activation of full-length SHP2 R138Q (0.05 nM) by phosphopeptide; DiFMUP substrate; HEPES pH 7.2 assay buffer; mean of N (column N)
Listing of recorded pEC50 by entry.
In textbook form, pEC50 equals minus log to base ten of the concentration in mol/L.

Recorded pEC50, per entry:
CC[C@H](C)[C@H](NC(=O)[C@H](Cc1ccc(OP(=O)(O)O)cc1)NC(=O)[C@H](CC(N)=O)NC(=O)[C@H](CC(C)C)NC(=O)CNC(=O)[C@H](CC(N)=O)NC(=O)[C@H](CCC(=O)O)NC(=O)[C@H](CC(C)C)NC(C)=O)C(=O)N[C@@H](CC(=O)O)C(=O)N[C@@H](CC(C)C)C(=O)N[C@@H](CC(=O)O)C(=O)N[C@@H](CC(C)C)C(=O)N[C@H](C(N)=O)C(C)C | 5.84
CC(=O)N1CCC[C@H]1C(=O)N[C@H](C(=O)N[C@@H](Cc1ccccc1)C(=O)N[C@@H](CO)C(=O)N[C@H](C(=O)N[C@@H](CC(=O)O)C(=O)N[C@@H](Cc1ccc(OP(=O)(O)O)cc1)C(=O)NCC(=O)N[C@@H](CCC(=O)O)C(=O)N[C@@H](CC(C)C)C(=O)N[C@@H](CC(=O)O)C(=O)N[C@@H](Cc1ccccc1)C(=O)N[C@@H](CCC(N)=O)C(N)=O)C(C)C)C(C)C | 5.18
CC[C@H](C)[C@H](NC(=O)[C@@H](NC(=O)[C@H](C)NC(=O)[C@H](Cc1ccc(OP(=O)(O)O)cc1)NC(=O)[C@@H](NC(=O)[C@@H]1CCCN1C(=O)[C@H](CCC(=O)O)NC(=O)[C@@H]1CCCN1C(=O)[C@H](CO)NC(=O)[C@@H](NC(C)=O)C(C)C)[C@@H](C)CC)[C@@H](C)O)C(=O)N[C@@H](CC(=O)O)C(=O)N[C@@H](CC(=O)O)C(=O)N[C@@H](CC(C)C)C(N)=O | 4.56
CC[C@H](C)[C@H](NC(=O)[C@H](CC(N)=O)NC(=O)[C@@H](NC(=O)[C@H](Cc1ccc(OP(=O)(O)O)cc1)NC(=O)[C@H](CCC(=O)O)NC(=O)CNC(=O)[C@@H]1CCCN1C(=O)[C@H](CO)NC(=O)[C@H](CCCCN)NC(=O)[C@@H]1CCCN1C(C)=O)C(C)C)C(=O)N[C@@H](CCC(=O)O)C(=O)N[C@@H](Cc1ccccc1)C(=O)NCC(N)=O | 4.53
CC[C@H](C)[C@H](NC(=O)[C@H](CC(=O)O)NC(=O)[C@H](C)NC(=O)[C@H](Cc1ccc(OP(=O)(O)O)cc1)NC(=O)[C@H](CCCCN)NC(=O)[C@@H](NC(=O)[C@H](CC(=O)O)NC(=O)CNC(=O)[C@H](CCCCN)NC(=O)[C@H](CCSC)NC(C)=O)C(C)C)C(=O)N[C@@H](CCC(=O)O)C(=O)N[C@@H](CO)C(=O)N[C@@H](CO)C(N)=O | 3.92

Please examine the following record next.
QUERY: Using the record for CC[C@H](C)[C@H](NC(=O)[C@@H](NC(=O)[C@H](C)NC(=O)[C@H](Cc1ccc(OP(=O)(O)O)cc1)NC(=O)[C@H](CCC(=O)O)NC(=O)[C@@H](NC(=O)[C@H](CCC(N)=O)NC(=O)[C@H](CCC(=O)O)NC(=O)[C@@H]1CCCN1C(=O)[C@@H](NC(C)=O)C(C)C)[C@@H](C)O)[C@@H](C)O)C(=O)N[C@H](C(=O)N[C@@H](Cc1ccccc1)C(=O)N1CCC[C@H]1C(N)=O)C(C)C , report its pEC50.
RESULT: 5.20
